Below are log10(IC50) values recorded for Inosine-5'-monophosphate dehydrogenase 1 (Homo sapiens, UniProt P20839).
readout-kind: log10(IC50) (log10 of the value in nM)

molecule: COc1c(C)c2c(c(O)c1CC1C(Br)(Br)C1(C)CCC(=O)O)C(=O)OC2 (stereo not given)
log10(IC50): 3.49
//
molecule: COc1c(C)c2c(c(O)c1CC1CC1(C)CCC(=O)O)C(=O)OC2 (stereo not given)
log10(IC50): 3.04
//
molecule: COc1c(C)c2c(c(O)c1CC1C(F)(F)C1(C)CCC(=O)O)C(=O)OC2 (stereo not given)
log10(IC50): 3.41
//
molecule: COc1c(C)c2c(c(O)c1C/C=C(\C)CCC(=O)O)C(=O)OC2
log10(IC50): 1.30
//
molecule: COc1c(C)c2c(c(O)c1CCCCCC(=O)O)C(=O)OC2
log10(IC50): 2.97

Data origin, for the record: ChEMBL document CHEMBL1124704
